- Study Target: T1, recombinant human DLL4 extracellular domain, C-terminally His-tagged (R&D Systems) (human, UniProt Q9NR61 25-522, biotinylated in the competition assays (sites not given))
- T1 construct: also called rhDLL4; hDLL4; not shown: C-terminal His tag
- T1 sequence (Q9NR61 25-522): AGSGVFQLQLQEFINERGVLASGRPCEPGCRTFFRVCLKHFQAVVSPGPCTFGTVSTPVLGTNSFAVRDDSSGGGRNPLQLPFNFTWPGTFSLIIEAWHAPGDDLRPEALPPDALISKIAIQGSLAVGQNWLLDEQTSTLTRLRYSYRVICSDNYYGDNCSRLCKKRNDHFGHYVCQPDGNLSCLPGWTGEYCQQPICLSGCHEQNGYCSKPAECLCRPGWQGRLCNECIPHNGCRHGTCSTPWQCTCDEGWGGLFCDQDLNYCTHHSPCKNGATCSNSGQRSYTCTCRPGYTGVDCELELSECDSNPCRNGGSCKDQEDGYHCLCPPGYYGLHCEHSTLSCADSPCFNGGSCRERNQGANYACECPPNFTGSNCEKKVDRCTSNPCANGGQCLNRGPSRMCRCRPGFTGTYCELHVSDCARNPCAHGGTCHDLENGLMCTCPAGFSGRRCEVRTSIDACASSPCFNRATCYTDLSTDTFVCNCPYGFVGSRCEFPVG
- Assay Summary: periplasmic extract; hDLL4 ELISA
Measure: % inhibition

Binder	% inhibition
DLLBII17B03 (VHH, also called DLLBII17B3; not shown: C-terminal c-myc and His6 tags) VHH: EVQLVESGGGLVQPGGSLRLSCAASGFTFENYALGWFRQAPGKEREWVSCISSSDGTTYYADSVKGRFTISRDNVKNTVYLQMNRLKPEDTAIYYCALSLGSSWCAYDYWGQGTQVTVSS	76%
DLLBII17F10 (VHH, not shown: C-terminal c-myc and His6 tags) VHH: EVQLVESGGGLVQAGGSLRLSCASSGRTLLNYAMGWFRQAPGKEREFVSGINWSGGSTYYADSVKGRFTISRDNAENTVYLHMNSLKPEDTAVYYCAAAHDNYWFTDDSLGRGLKYWGQGTQVTVSS	98%
DLLBII17G10 (VHH, not shown: C-terminal c-myc and His6 tags) VHH: EVQLVESGGGLVQAGGSLRLSCAASGSTFSSYAMGWYRHQAPGKQRELVAAISSDGSTHYADSVKGRFTISRDNAKNTMYLQMNSLKPEDTAVYYCNTKTFGSNWYDDYWGQGTQVTVSS	93%

Exercise: Which measured % inhibition value corresponds to DLLBII19D10 (VHH, not shown: C-terminal c-myc and His6 tags) VHH: EVQLVESGGGLVQAGDSLRLSCAASGRTVGSYDMSWVRQGPGKEREWVSSINSGVGKTYYADSVKGRFTIFRDNAKNMVYLQMNNLKPEDTAVYYCATEMDGSRYVEGQGTQVTVSS ?
Solution: 98%
